Just for reference, ChEMBL document CHEMBL1124310 is where these values come from.

- tgt: Cyclooxygenase (Homo sapiens, UniProt P35354+P23219)
- assay.details: Inhibitory activity against Prostaglandin G/H synthase at 1 uM concentration
- Format: protein assay
Below, each entry is listed with its recorded inhibition.

| compound.string | inhibition / % |
| --- | --- |
| CC(C)(C)c1cc(/C=C/C(=O)c2cccs2)cc(C(C)(C)C)c1O | 44 |
| CC(C)(C)c1cc(C(=O)/C=C/c2cccs2)cc(C(C)(C)C)c1O | 72 |
| CC(C)(C)c1cc(/C=C/c2ccc(F)cc2)cc(C(C)(C)C)c1O | 52 |
| CC(C)(C)c1cc(/C=C/c2cccc(C(F)(F)F)c2)cc(C(C)(C)C)c1O | 9 |
